# Experimental details: DNDI: Cytotoxicity against L-6 rat myoblasts from skeletal muscle cells
# Conditions used: L6 rat skeletal muscle myoblast cells, IC50
Value type: IC50

Compound: OC(c1ccc(Cl)cc1)(c1cnccn1)c1ccccc1Cl (stereo not drawn)
IC50: > 100 µM

# IC50 lookup, item Cc1noc(N2CCN(C(c3ccc(C#N)cc3)c3cccnc3)CC2)n1 (stereo not drawn)
> 100 µM

Also CC(C)CC(=O)N1CCN(C(c2ccc(Cl)cc2)c2cncnc2)CC1 (stereo not drawn) , if possible.
> 100 µM

====

IC50 for assorted molecules
# Experimental details: DNDI: Cytotoxicity against L-6 rat myoblasts from skeletal muscle cells
# Conditions used: L6 rat skeletal muscle myoblast cells, IC50

Quick one: IC50 of O=S(=O)(NC(c1ccc(C(F)(F)F)cc1)c1cnccn1)c1ccc(Cl)cc1 (stereo not drawn) ?
56.4 µM

Moving on to the next molecule: CC(C)(C)OC(=O)N1CCC(CN(c2ccc(C(F)(F)F)cc2)c2cccnc2)CC1
51.7 µM

Next record, please: N#Cc1cnc(N2CCC(NC(c3cccnc3)c3ccc(Cl)cc3F)CC2)s1 (stereo not drawn)
55.7 µM

Record: CCS(=O)(=O)NC1CCN(C(c2cnccn2)c2ccc(F)cc2F)CC1 (stereo not drawn)
> 100 µM

// repeat for CC(C)Oc1ccc(C(NC2CCN(S(C)(=O)=O)CC2)c2cccnc2)cc1 (stereo not drawn) and report
> 100 µM

Then O=S(=O)(NC1CCN(C(c2ccc(C(F)(F)F)cc2)c2cnccn2)CC1)c1ccccc1 (stereo not drawn) ?
55.9 µM

Next record, please: Fc1cc(Cl)ccc1C(NC1CCN(c2nccc(C(F)(F)F)n2)CC1)c1cccnc1 (stereo not drawn)
55.4 µM

# iterate: CC(C)Oc1ccc(C(c2cccnc2)N2CCC(NC(=O)C3CC3)CC2)cc1 (stereo not drawn)
> 100 µM

And for O=C(C1CC1)N1CCN(C(c2cncnc2)c2ccc(C(F)(F)F)cc2F)CC1 (stereo not drawn) ?
> 100 µM

Same lookup for Clc1ccc(C(NC2CCN(c3ccc(Cl)cn3)CC2)c2cccnc2)cc1 (stereo not drawn) , please.
66.8 µM

What do we get for CS(=O)(=O)NC1CCN(C(c2cccnc2)c2ccc(Cl)cc2F)CC1 (stereo not drawn) ?
> 100 µM

Repeat for the following molecule: Cc1nc(C)c(C(=O)NC2CCN(C(c3ccc(C#N)cc3)c3cccnc3)CC2)s1 (stereo not drawn)
> 100 µM

How about this molecule: OC(c1cccnc1)(c1cccs1)c1ccc(Cl)cc1F (stereo not drawn)
> 100 µM

Next: CC(C)CC(Nc1cccnc1)c1ccc(Cl)cc1 (stereo not drawn)
56.2 µM

Thanks! And CS(=O)(=O)NC1CCN(C(c2cnccn2)c2ccc(F)cc2F)CC1 (stereo not drawn) ?
> 100 µM

Can you check O=C(c1ccccc1)N1CCC(NC(c2ccc(C(F)(F)F)cc2)c2cccnc2)CC1 (stereo not drawn) next?
72.8 µM

Please give the result for Cc1cc(C(=O)N2CCC(NC(c3ccc(C(F)(F)F)cc3)c3cccnc3)CC2)nn1C (stereo not drawn) too.
58.6 µM

Please do the same for O=S(=O)(c1ccc(Cl)cc1)N1CCC(NC(c2ccc(C(F)(F)F)cc2)c2cnccn2)CC1 (stereo not drawn) as well.
> 100 µM

Next entry: N#Cc1ccc(C(NC2CCN(C(=O)c3ccccc3)CC2)c2cccnc2)cc1 (stereo not drawn)
> 100 µM

Entry Cn1ccnc1C(=O)N1CCC(NC(c2ccc(C(F)(F)F)cc2)c2cccnc2)CC1 (stereo not drawn) please
> 100 µM

And the next one, Fc1ccc(N2CCC(NC(c3cccnc3)c3ccc(Cl)cc3F)CC2)cc1F (stereo not drawn) ?
34.2 µM
